Tested on: Aβ1-42
Assay: Aβ1-42 content in conditioned medium of primary cortico-hippocampal neuron cultures from Tg2576 mice (ELISA; primary and secondary dose-response screening)
Format: cell-based, mouse
Conditions: Mus musculus, 24 h; primary screening, drug 100 μM, Tg2576 neuron cultures; table sorted by Aβ1-42; read-out: Ab1-42 (% of ctl)
Where a name gives a salt, the structure may show the parent alone.

{"columns": ["Compound", "activity at 100 µM"],
 "data": [
  ["NCCc1cc(O)c(O)cc1O [Oxidopamine Hydrochloride]", "36.4%"],
  ["COc1ccc(CCN(C)CCCC(C#N)(c2ccc(OC)c(OC)c2)C(C)C)cc1OC (stereo not shown)", "101%"],
  ["COc1cc2c3cc1Oc1c(OC)c(OC)cc4c1[C@@H](Cc1cccc(c1)Oc1ccc(c(O)c1)C[C@@H]3N(C)CC2)N(C)CC4 [Berbamine Hydrochloride]", "151%"],
  ["CC[C@H]1[C@@H]2C[C@H]3[C@@H]4N(C)c5ccccc5[C@]45C[C@@H]([C@H]2[C@H]5O)N3[C@@H]1O", "103%"]
]}

* * *

System: Aβ1-40
Experiment: Aβ1-40 content in conditioned medium of primary cortico-hippocampal neuron cultures from Tg2576 mice (ELISA; primary and secondary dose-response screening)
Type: cell-based, mouse
Conditions: Mus musculus, Neuron, 24 h, primary screening, drug 100 μM, Tg2576 neuron cultures; table sorted by Aβ1-42; read-out: Ab1-40 (% of ctl)
Structures can show the parent of a compound that is named as a salt.
Lab note - cut at 90% for activity at 100 µM: true (1) if strictly below, false (0) if not.

{"columns": ["Molecule", "Measurement target", "Class label"],
 "data": [
  ["C[C@H](CS)C(=O)N1CCC[C@H]1C(=O)O", "Aβ1-40", "false (0)"],
  ["CN1C[C@H](CNC(=O)OCc2ccccc2)C[C@@H]2c3cccc4c3c(cn4C)C[C@H]21", "Aβ1-40", "true (1)"],
  ["CC(=O)S[C@@H]1CC2=CC(=O)CC[C@]2(C)[C@H]2CC[C@@]3(C)[C@@H](CC[C@@]34CCC(=O)O4)[C@H]12", "Aβ1-40", "true (1)"],
  ["COC(=O)[C@H]1[C@H]2C[C@H]3c4[nH]c5ccccc5c4CCN3C[C@H]2CC[C@@H]1O [Rauwolscine Hydrochloride]", "Aβ1-40", "false (0)"],
  ["COC(=O)[C@H]1[C@H]2C[C@@H]3c4[nH]c5cc(OC)ccc5c4CCN3C[C@H]2C[C@@H](OC(=O)c2cc(OC)c(OC)c(OC)c2)[C@@H]1OC", "Aβ1-40", "true (1)"]
]}

* * *

Test system: primary cortico-hippocampal neuron cultures
Assay: lactate dehydrogenase (LDH) activity assay in parallel neuron cultures
Conditions: Primary Screening; table sorted by Aβ1-40
Counter-ions that a name gives are not always drawn.

{"columns": ["Compound", "LDH (% of ctl)"],
 "data": [
  ["CC(C)(C)NC[C@H](O)COc1nsnc1N1CCOCC1 [Timolol Maleate]", "104.4 % of ctl"],
  ["NS(=O)(=O)c1cc(C(=O)O)c(NCc2ccco2)cc1Cl [Furosemide]", "98.2 % of ctl"],
  ["CCC(C(N)=O)c1ccccc1 (centres unmarked) [Fenbutyramide]", "135.0 % of ctl"],
  ["CC[C@@H](C)C(=O)O[C@H]1[C@H](O)[C@H]2[C@@H](CN3C[C@@H](C)CC[C@H]3[C@@]2(C)O)[C@@H]2C[C@]34O[C@]5(O)[C@@H](OC(=O)[C@](C)(O)[C@@H](C)O)CC[C@@]3(C)[C@@H]5[C@@H](OC(C)=O)[C@@H](OC(C)=O)[C@H]4[C@@]21O (stereo in doubt) [Protoveratrine B]", "729.8 % of ctl"],
  ["COC(=O)[C@H]1[C@H]2C[C@@H]3c4[nH]c5cc(OC)ccc5c4CCN3C[C@H]2C[C@@H](OC(=O)c2cc(OC)c(OC)c(OC)c2)[C@@H]1OC [Reserpine]", "157.8 % of ctl"],
  ["Nc1cc(N2CCCCC2)nc(N)[n+]1[O-] [Minoxidil]", "117.1 % of ctl"],
  ["NS(=O)(=O)c1cc(C2(O)NC(=O)c3ccccc32)ccc1Cl (centres unmarked) [Chlorthalidone]", "645.8 % of ctl"],
  ["NCCCCCC(=O)O [Aminocaproic Acid]", "90.4 % of ctl"],
  ["N=C(N)NC(=O)c1nc(Cl)c(N)nc1N [Amiloride Hydrochloride]", "104.7 % of ctl"],
  ["NS(=O)(=O)c1cc2c(cc1C(F)(F)F)NCNS2(=O)=O [Hydroflumethiazide]", "99.7 % of ctl"],
  ["CC(=O)Nc1nnc(S(N)(=O)=O)s1 [Acetazolamide]", "173.5 % of ctl"],
  ["C=CCSCC1Nc2cc(Cl)c(S(N)(=O)=O)cc2S(=O)(=O)N1 (centres unmarked) [Althiazide]", "109.0 % of ctl"],
  ["COc1ccc(OC)c(C(O)CNC(=O)CN)c1 (centres unmarked) [Midodrine Hydrochloride]", "105.6 % of ctl"],
  ["CC(C)COCC(CN(Cc1ccccc1)c1ccccc1)N1CCCC1 (centres unmarked) [Bepridil Hydrochloride]", "1885.2 % of ctl"],
  ["C[N+]1(CCCCC[N+]2(C)CCCC2)CCCC1 [Pentolinium Tartrate]", "118.0 % of ctl"],
  ["COCCc1ccc(OCC(O)CNC(C)C)cc1 (centres unmarked) [Metoprolol Tartrate]", "107.5 % of ctl"],
  ["CC[C@H]1CN2CC[C@H]1C[C@@H]2[C@@H](O)c1ccnc2ccc(OC)cc12 [Hydroquinidine]", "102.2 % of ctl"],
  ["COc1ccc([C@@H]2Sc3ccccc3N(CCN(C)C)C(=O)[C@@H]2OC(C)=O)cc1 [Diltiazem Hydrochloride]", "96.1 % of ctl"],
  ["NS(=O)(=O)c1cc2c(cc1Cl)NC(C(Cl)Cl)NS2(=O)=O (centres unmarked) [Trichlormethiazide]", "102.6 % of ctl"],
  ["NC(N)=NC(=O)c1nc(Cl)c(N2CCCCCC2)nc1N [N,N-Hexamethyleneamiloride]", "117.3 % of ctl"],
  ["O=C(O)c1cccnc1 [Niacin]", "134.5 % of ctl"],
  ["O=c1oc2c(O)c(O)cc3c(=O)oc4c(O)c(O)cc1c4c23 [Ellagic Acid]", "109.2 % of ctl"],
  ["NC(N)=O [Urea]", "130.8 % of ctl"],
  ["NS(=O)(=O)c1cc2c(cc1Cl)N=C(CSCc1ccccc1)NS2(=O)=O [Benzthiazide]", "105.1 % of ctl"],
  ["NS(=O)(=O)c1cc2c(cc1C(F)(F)F)NC(Cc1ccccc1)NS2(=O)=O (centres unmarked) [Bendrofumethiazide]", "104.7 % of ctl"],
  ["COc1ccc2cc1Oc1ccc(cc1)C[C@H]1c3cc(c(OC)cc3CCN1C)Oc1c(OC)c(OC)cc3c1[C@H](C2)N(C)CC3 [Tetrandrine]", "117.6 % of ctl"],
  ["CC(CCc1ccc(O)cc1)NCCc1ccc(O)c(O)c1 (centres unmarked) [Dobutamine Hydrochloride]", "103.1 % of ctl"],
  ["COC(=O)[C@H]1[C@H]2C[C@H]3c4[nH]c5ccccc5c4CCN3C[C@H]2CC[C@@H]1O [Rauwolscine Hydrochloride]", "109.4 % of ctl"],
  ["Cn1cnc2c1c(=O)[nH]c(=O)n2C [Theobromine]", "118.3 % of ctl"],
  ["CC(CCc1ccccc1)NCC(O)c1ccc(O)c(C(N)=O)c1 (centres unmarked) [Labetalol Hydrochloride]", "164.0 % of ctl"],
  ["CC(C)NCC(O)COc1ccc(CC(N)=O)cc1 (centres unmarked) [Atenolol]", "136.8 % of ctl"],
  ["NS(=O)(=O)c1cc2c(cc1Cl)NCNS2(=O)=O [Hydrochlorothiazide]", "281.1 % of ctl"],
  ["COC(=O)C1=C(C)NC(C)=C(C(=O)OC)C1c1ccccc1[N+](=O)[O-] [Nifedipine]", "76.1 % of ctl"],
  ["COc1cc2nc(N(C)CCCNC(=O)C3CCCO3)nc(N)c2cc1OC (centres unmarked) [Alfluzosin]", "95.4 % of ctl"],
  ["NS(=O)(=O)c1cc2c(cc1Cl)NC(C1CC3C=CC1C3)NS2(=O)=O (centres unmarked) [Cyclothiazide]", "110.3 % of ctl"]
]}

* * *

System: primary cortico-hippocampal neuron cultures
Assay: MTT in primary screening
Conditions: primary screening; table sorted by Aβ1-42
Counter-ions that a name gives are not always drawn.
Result type: MTT (% of ctl)

{"columns": ["Compound", "Result type", "Measured value"],
 "data": [
  ["C=C(CC)C(=O)c1ccc(OCC(=O)O)c(Cl)c1Cl", "MTT (% of ctl)", "109.9 % of ctl"],
  ["CC(COc1ccccc1)N(CCCl)Cc1ccccc1 (stereo not drawn) [Phenoxybenzamine Hydrochloride]", "MTT (% of ctl)", "72.8 % of ctl"],
  ["O=C1c2ccccc2C(=O)C1c1ccccc1", "MTT (% of ctl)", "108.8 % of ctl"],
  ["COc1ccc(C2C(=O)c3ccccc3C2=O)cc1", "MTT (% of ctl)", "110.7 % of ctl"],
  ["CCCc1nc2c(C)cc(-c3nc4ccccc4n3C)cc2n1Cc1ccc(-c2ccccc2C(=O)O)cc1", "MTT (% of ctl)", "109.4 % of ctl"],
  ["CC[C@@H](C)C(=O)O[C@H]1[C@H](O)[C@H]2[C@@H](CN3C[C@@H](C)CC[C@H]3[C@@]2(C)O)[C@@H]2C[C@]34O[C@]5(O)[C@@H](OC(=O)[C@](C)(O)[C@@H](C)O)CC[C@@]3(C)[C@@H]5[C@@H](OC(C)=O)[C@@H](OC(C)=O)[C@H]4[C@@]21O (stereo in doubt)", "MTT (% of ctl)", "58.5 % of ctl"],
  ["Cc1cc(C(C)(C)C)c(O)c(C)c1CC1=NCCN1 [Oxymetazoline Hydrochloride]", "MTT (% of ctl)", "97.3 % of ctl"],
  ["CCOc1ccccc1OCCN[C@H](C)Cc1ccc(OC)c(S(N)(=O)=O)c1.Cl [Tamsulosin Hydrchloride]", "MTT (% of ctl)", "96.1 % of ctl"],
  ["Cc1ccccc1N1C(=O)c2cc(S(N)(=O)=O)c(Cl)cc2NC1C (stereo not drawn)", "MTT (% of ctl)", "69.7 % of ctl"],
  ["NS(=O)(=O)c1cc2c(cc1C(F)(F)F)NCNS2(=O)=O [Hydroflumethiazide]", "MTT (% of ctl)", "98.9 % of ctl"],
  ["COc1cc2nc(N3CCN(C(=O)c4ccco4)CC3)nc(N)c2cc1OC [Prazosin Hydrochloride]", "MTT (% of ctl)", "99.9 % of ctl"],
  ["CCOC(=O)[C@H](CCc1ccccc1)N[C@H]1CCc2ccccc2N(CC(=O)O)C1=O [Benazepril Hydrochloride]", "MTT (% of ctl)", "99.5 % of ctl"],
  ["NS(=O)(=O)c1cc2c(cc1Cl)N=C(CSCc1ccccc1)NS2(=O)=O [Benzthiazide]", "MTT (% of ctl)", "98.5 % of ctl"],
  ["CCOC(=O)C1=C(COCCN)NC(C)=C(C(=O)OC)C1c1ccccc1Cl (stereo not drawn) [Amlodipine Besylate]", "MTT (% of ctl)", "13.3 % of ctl"],
  ["COCCc1ccc(OCC(O)CNC(C)C)cc1 (stereo not drawn) [Metoprolol Tartrate]", "MTT (% of ctl)", "94.7 % of ctl"],
  ["CC(C)NCC(O)c1ccc2ccccc2c1 (stereo not drawn) [Pronetalol Hydrochloride]", "MTT (% of ctl)", "88.8 % of ctl"],
  ["NC(N)=NC(=O)c1nc(Cl)c(N2CCCCCC2)nc1N [N,N-Hexamethyleneamiloride]", "MTT (% of ctl)", "96.1 % of ctl"],
  ["C=C[C@H]1C[N@@]2CC[C@H]1C[C@@H]2[C@@H](O)c1ccnc2ccc(OC)cc12 [Quinidine Gluconate]", "MTT (% of ctl)", "46.8 % of ctl"],
  ["CCOC(=O)[C@H](CCc1ccccc1)N[C@@H](C)C(=O)N1CCC[C@H]1C(=O)O [Enalapril Maleate]", "MTT (% of ctl)", "126.4 % of ctl"],
  ["CCOC(=O)[N-]c1cn(N2CCOCC2)n[o+]1", "MTT (% of ctl)", "15.0 % of ctl"],
  ["CCOC(=O)C1=C(C)NC(C)=C(C(=O)OC)C1c1cccc([N+](=O)[O-])c1 (stereo not drawn)", "MTT (% of ctl)", "100.8 % of ctl"]
]}
